Catalogue of pIC50 values
# Tested on: CCRF-CEM
# assayDetails: Cytotoxicity against human CEM cells after 48 to 72 hrs by MTT assay
# Assay type: functional, cell-based
In simple prose, pIC50 is minus the logarithm base ten of a concentration in moles per litre.

Past entries and their recorded results:
| compoundStructure | pIC50 |
| --- | --- |
| CC(C)(C)c1ccc(C(=O)Nc2nc3c(s2)C[C@@H](N)CC3)cc1.Cl | 5.34 |
| N[C@H]1CCc2nc(NC(=O)c3ccc(Cl)cc3Cl)sc2C1 | 5.06 |
| N[C@H]1CCc2nc(NC(=O)c3cc([N+](=O)[O-])cc([N+](=O)[O-])c3)sc2C1 | 5.04 |
| N[C@H]1CCc2nc(NC(=O)c3ccccc3F)sc2C1 | 4.25 |
| N[C@H]1CCc2nc(NC(=O)c3ccccc3)sc2C1 | 4.21 |

Respond only with pIC50 recorded for N[C@H]1CCc2nc(NC(=O)c3cccc(Br)c3)sc2C1
4.64

Respond only with pIC50 recorded for N[C@H]1CCc2nc(NC(=O)c3c(F)cccc3F)sc2C1
4.09

Respond only with pIC50 recorded for COc1cccc(C(=O)Nc2nc3c(s2)C[C@@H](N)CC3)c1
4.86

----------
Catalogue of log10(IC50) values
# Test system: K562
# assayDetails: Cytotoxicity against human K562 cells after 48 to 72 hrs by MTT assay
# Format: functional, cell-based
Heads up: the numbers are on a log10 scale; they represent IC50 in µM.

Past entries and their recorded results:
| compoundStructure | log10(IC50) |
| --- | --- |
| CC(C)(C)c1ccc(C(=O)Nc2nc3c(s2)C[C@@H](N)CC3)cc1.Cl | 0.66 |
| N[C@H]1CCc2nc(NC(=O)c3cccc(Br)c3)sc2C1 | 1.32 |
| N[C@H]1CCc2nc(NC(=O)c3ccccc3)sc2C1 | 1.82 |

Respond only with log10(IC50) recorded for N[C@H]1CCc2nc(NC(=O)c3ccc(Cl)cc3Cl)sc2C1
0.89

Respond only with log10(IC50) recorded for N[C@H]1CCc2nc(NC(=O)c3cc([N+](=O)[O-])cc([N+](=O)[O-])c3)sc2C1
0.91

Respond only with log10(IC50) recorded for COc1cccc(C(=O)Nc2nc3c(s2)C[C@@H](N)CC3)c1
1.25

Respond only with log10(IC50) recorded for N[C@H]1CCc2nc(NC(=O)c3ccccc3F)sc2C1
1.76
